The reported measurements were obtained from ChEMBL document CHEMBL3045268.

# Test system: Mus musculus
# protocol.notes: Toxicity in Mus musculus (mouse) transplanted with mouse EAC cells assessed as increase in hemoglobin level at 75 mg/kg, ip measured on day 13 post tumor implantation (reference value: 7.5 +/- 0.01 g%)
# Assay type: organism-based, Ehrlich
# Set-up: dose 75 mg/kg, route intraperitoneal
# setup.conditions: in vivo
Consider the following compounds; for each one, report its Activity.
Quick note: number first, unit second.

{"columns": ["compound", "study.target", "property.label", "result"],
 "data": [
  ["COc1ccccc1N1CCN(CC(=O)Nc2nc(-c3c(O)cc(C)oc3=O)cs2)CC1", "Mus musculus", "Activity", "12.52 g%"],
  ["Cc1cc(O)c(-c2csc(NC(=O)CN3CCN(c4ccc(F)cc4)CC3)n2)c(=O)o1", "Mus musculus", "Activity", "11.96 g%"],
  ["Cc1cc(O)c(-c2csc(NC(=O)CN3CCN(C(=O)c4ccco4)CC3)n2)c(=O)o1", "Mus musculus", "Activity", "13.21 g%"],
  ["Cc1cc(O)c(-c2csc(NC(=O)CN3CCN(C)CC3)n2)c(=O)o1", "Mus musculus", "Activity", "10.64 g%"],
  ["Cc1cc(O)c(-c2csc(N3C(=O)CSC3c3cccc([N+](=O)[O-])c3)n2)c(=O)o1 (stereo not drawn)", "Mus musculus", "Activity", "11.35 g%"]
]}

Batch request: Activity for each of the following compounds.
1. Cc1cc(O)c(-c2csc(N3C(=O)CSC3c3ccc(O)cc3)n2)c(=O)o1 (stereo not drawn)
2. Cc1cc(O)c(-c2csc(N3C(=O)CSC3c3ccc(Cl)cc3)n2)c(=O)o1 (stereo not drawn)

["13.08 g%", "8.54 g%"]

// returns reported Activity for input COc1cc(C2SCC(=O)N2c2nc(-c3c(O)cc(C)oc3=O)cs2)cc(OC)c1OC (stereo not drawn)
10.48 g%

====

# Test system: Mus musculus
# protocol.notes: Toxicity in Mus musculus (mouse) transplanted with mouse EAC cells assessed as effect on WBC level measured per 10^3 cells at 75 mg/kg, ip on day 13 post tumor implantation (reference value: 19.49 +/- 0.26 mm3)
# Type: organism-based, Ehrlich
# Design: dose 75 mg/kg, route intraperitoneal
# setup.conditions: in vivo
property.label: Activity

Known Activity results, listed for orientation:
{"columns": ["compound", "study.target", "result"],
 "data": [
  ["Cc1cc(O)c(-c2csc(NC(=O)CN3CCN(c4ccc(F)cc4)CC3)n2)c(=O)o1", "Mus musculus", "17.6 10^3 cells/mm3"],
  ["Cc1cc(O)c(-c2csc(NC(=O)CN3CCN(C(=O)c4ccco4)CC3)n2)c(=O)o1", "Mus musculus", "48.6 10^3 cells/mm3"],
  ["Cc1cc(O)c(-c2csc(NC(=O)CN3CCN(C)CC3)n2)c(=O)o1", "Mus musculus", "19.6 10^3 cells/mm3"],
  ["Cc1cc(O)c(-c2csc(N3C(=O)CSC3c3ccc(Cl)cc3)n2)c(=O)o1 (stereo not drawn)", "Mus musculus", "18.2 10^3 cells/mm3"],
  ["COc1ccccc1N1CCN(CC(=O)Nc2nc(-c3c(O)cc(C)oc3=O)cs2)CC1", "Mus musculus", "15.7 10^3 cells/mm3"],
  ["Cc1cc(O)c(-c2csc(N3C(=O)CSC3c3cccc([N+](=O)[O-])c3)n2)c(=O)o1 (stereo not drawn)", "Mus musculus", "33.9 10^3 cells/mm3"],
  ["COc1cc(C2SCC(=O)N2c2nc(-c3c(O)cc(C)oc3=O)cs2)cc(OC)c1OC (stereo not drawn)", "Mus musculus", "19.2 10^3 cells/mm3"]
]}

Turning now to a further compound:
What value of Activity on Mus musculus does Cc1cc(O)c(-c2csc(N3C(=O)CSC3c3ccc(O)cc3)n2)c(=O)o1 (stereo not drawn) have?
16.6 10^3 cells/mm3
